# Tested on: 616215-338-R-J1-PDC complex spheroid viability
# test_description: Anticancer human tumor 616215-338-R-J1-PDC patient-derived colon adenocarcinoma cell line growth inhibition [POLQ]
# applied_conditions: second compound 10 µM; first compound 0.1 µM; hits give low values
Below, each entry is listed with its recorded viability, T/C.
Numbers only; they are read as %.

{"compound": "COc1cc2cc(C(=O)CCC(=O)O)sc2cc1OC + Cc1cccc(N(C)C(=O)C2C(O)CCN2c2nc(C)cc(C(F)(F)F)c2C#N)c1", "unit_text": "%", "observed_value": 102}
{"compound": "CNCc1ccc(-c2[nH]c3cc(F)cc4c3c2CCNC4=O)cc1 + Nc1ccc(C#CCN(C(=O)Cc2ncc(C(F)(F)F)cc2C(F)(F)F)c2ccc(F)cc2)nn1", "unit_text": "%", "observed_value": 78.5}
{"compound": "COc1ccc([C@@H](O)c2cc(-c3ncnc4cc(N5CCOCC5)ccc34)c(F)cc2Cl)nn1 + Nc1ccc(C#CCN(C(=O)Cc2ncc(C(F)(F)F)cc2C(F)(F)F)c2ccc(F)cc2)nn1", "unit_text": "%", "observed_value": 99.9}

Lab book: viability, T/C of O=C(c1cc(Cc2n[nH]c(=O)c3ccccc23)ccc1F)N1CCN(C(=O)C2CC2)CC1 + Cc1cccc(N(C)C(=O)C2C(O)CCN2c2nc(C)cc(C(F)(F)F)c2C#N)c1 noted as 101

Lab book: viability, T/C of CCc1cc2c(N3CCc4c(cc(Cn5ccnc5)cc4-c4cn(C)nc4C(F)(F)F)C3=O)cc(C)nc2c(OC)n1 + COC1C(OC(N)=O)C(O)C(Oc2ccc3c(O)c(NC(=O)c4ccc(O)c(CC=C(C)C)c4)c(=O)oc3c2C)OC1(C)C noted as 99.2

Lab book: viability, T/C of CC[C@@]1(O)C(=O)OCc2c1cc1n(c2=O)Cc2cc3c(CN(C)C)c(O)ccc3nc2-1 + Nc1ccc(C#CCN(C(=O)Cc2ncc(C(F)(F)F)cc2C(F)(F)F)c2ccc(F)cc2)nn1 noted as 38

Lab book: viability, T/C of C=CC(=O)N1CCN(c2nc(=O)n(-c3c(C)ccnc3C(C)C)c3nc(-c4c(O)cccc4F)c(F)cc23)C(C)C1 (stereo not given) + Cc1cccc(N(C)C(=O)C2C(O)CCN2c2nc(C)cc(C(F)(F)F)c2C#N)c1 noted as 99.6

Lab book: viability, T/C of CC(C)n1c(=O)n(C)c2cnc3cc(F)c(-c4ccc(OCCCN5CCCCC5)nc4)cc3c21 + COC1C(OC(N)=O)C(O)C(Oc2ccc3c(O)c(NC(=O)c4ccc(O)c(CC=C(C)C)c4)c(=O)oc3c2C)OC1(C)C noted as 102

* * *

# Test system: 616215-338-R-J1-PDC complex spheroid viability
# test_description: Anticancer human tumor 616215-338-R-J1-PDC cell line growth inhibition [POLQ];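 also: spheroids exposed to compounds for one week before readout; percent viability relative to DMSO vehicle wells taken as 100%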
# applied_conditions: second compound 1 µM; first compound 0.00316 µM; hits give low values
endpoint: viability, T/C (%)
Numbers only; they are read as %.

{"compound": "CCc1c2c(nc3ccc(O)cc13)-c1cc3c(c(=O)n1C2)COC(=O)[C@]3(O)CC + COC1C(OC(N)=O)C(O)C(Oc2ccc3c(O)c(NC(=O)c4ccc(O)c(CC=C(C)C)c4)c(=O)oc3c2C)OC1(C)C", "endpoint": "viability, T/C", "observed_value": 103}
{"compound": "COc1cccc(OCCCN)c1-c1cc(Nc2cnc(C#N)cn2)n[nH]1 + Nc1ccc(C#CCN(C(=O)Cc2ncc(C(F)(F)F)cc2C(F)(F)F)c2ccc(F)cc2)nn1", "endpoint": "viability, T/C", "observed_value": 97.5}
{"compound": "Cn1ncnc1[C@H]1c2n[nH]c(=O)c3cc(F)cc(c23)N[C@@H]1c1ccc(F)cc1 + Cc1cccc(N(C)C(=O)C2C(O)CCN2c2nc(C)cc(C(F)(F)F)c2C#N)c1", "endpoint": "viability, T/C", "observed_value": 111}
{"compound": "COc1cccc(OCCCN)c1-c1cc(Nc2cnc(C#N)cn2)n[nH]1 + Cc1cccc(N(C)C(=O)C2C(O)CCN2c2nc(C)cc(C(F)(F)F)c2C#N)c1", "endpoint": "viability, T/C", "observed_value": 108}

Lab book: viability, T/C of C=CCn1c(=O)c2cnc(Nc3ccc(N4CCN(C)CC4)cc3)nc2n1-c1cccc(C(C)(C)O)n1 + Cc1cccc(N(C)C(=O)C2C(O)CCN2c2nc(C)cc(C(F)(F)F)c2C#N)c1 noted as 96.8

Recorded values, source PubChem BioAssay AID1963843.
